Reference for the values: PubChem BioAssay AID588342

systemName: Luciferin 4-monooxygenase (Photinus pyralis) (UniProt P08659)
Sequence (P08659 whole entry, looked up): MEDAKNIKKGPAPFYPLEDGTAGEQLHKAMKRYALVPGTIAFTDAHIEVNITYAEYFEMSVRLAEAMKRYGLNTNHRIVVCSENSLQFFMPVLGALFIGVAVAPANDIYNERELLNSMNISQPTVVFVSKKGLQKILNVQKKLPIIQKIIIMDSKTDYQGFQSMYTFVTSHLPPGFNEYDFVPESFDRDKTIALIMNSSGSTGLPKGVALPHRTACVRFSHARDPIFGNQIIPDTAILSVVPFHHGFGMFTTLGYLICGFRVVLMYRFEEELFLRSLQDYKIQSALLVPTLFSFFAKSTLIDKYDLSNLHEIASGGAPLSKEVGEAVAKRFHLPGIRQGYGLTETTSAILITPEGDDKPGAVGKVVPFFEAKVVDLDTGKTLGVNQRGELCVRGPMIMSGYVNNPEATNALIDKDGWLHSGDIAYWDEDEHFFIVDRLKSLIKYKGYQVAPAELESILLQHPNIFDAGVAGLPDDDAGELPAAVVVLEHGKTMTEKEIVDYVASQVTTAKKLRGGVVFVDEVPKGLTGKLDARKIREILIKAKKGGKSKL
assayExplanation: qHTS profiling assay for firefly luciferase inhibitor/activator using purifed enzyme and Km concentrations of substrates (counterscreen for miR-21 project); also: nearly all actives have a fitted effect of over 55% in size
experimentalParameters: purified FLuc, luminescence inhibition; series mostly up to 57.5 µM
Among all 360,000 compounds or so, about 25,000 (6.9%) were called active. Inconclusive results (about 9%) are left out. Calls follow the shape of the dose curve; as a rule, active = well fitted inhibition curve with a large enough effect; inconclusive = small, poorly fitted or top-dose-only effect; inactive = flat fitted curve, though single readings scatter. For the sample, actives were picked, then their nearest neighbours and some compounds at random.
Labels: active, inactive

compound="CCCc1ccc(OCC(O)CN2CCN(CCO)CC2)cc1 (stereo unspecified)" categorylabel=inactive
compound=Cc1ccccc1Cn1nc(C)c(NC(=O)c2cc(-c3ccc(F)cc3)on2)c1C categorylabel=inactive
compound=Cc1cccc(NC(=O)c2ccc3nsnc3c2)c1C categorylabel=inactive
compound=O=C(Nc1ccccc1)N1CCN(C(=O)Nc2ccccc2)CC1 categorylabel=inactive
compound=Cn1c(=O)n(Cc2ccco2)c(=N)c2c3c(sc21)CCCC3 categorylabel=inactive
compound="Cc1cc(C)c(-c2n[nH]c3c2C(c2ccccc2F)N(CCO)C3=O)c(O)c1 (stereo unspecified)" categorylabel=inactive
compound=CCc1ccccc1NC(=O)c1ccc2snnc2c1 categorylabel=inactive
compound=Cc1nnc(N2CCC(C(=O)Nc3ccc(F)cc3)CC2)c2nn(-c3ccc(Cl)cc3)c(C)c12 categorylabel=inactive
compound=N=C1C(c2nc3ccccc3s2)=C(O)CN1NC(=O)c1ccc([N+](=O)[O-])cc1 categorylabel=active
compound="CCOc1ccccc1CNC(=O)C1CCCN(S(=O)(=O)c2ccc3c(ccn3C)c2)C1 (stereo unspecified)" categorylabel=inactive
compound=COc1cccc(CNC(=O)CN2C(=O)CCc3cc(S(=O)(=O)N4CCOCC4)ccc32)c1 categorylabel=inactive

====

systemName: Luciferin 4-monooxygenase (Photinus pyralis)
assayExplanation: qHTS profiling assay for firefly luciferase inhibitor/activator using purifed enzyme and Km concentrations of substrates (counterscreen for miR-21 project); also: nearly all actives have a fitted effect of over 55% in size
experimentalParameters: purified FLuc, luminescence inhibition; series mostly up to 57.5 µM
Screen size: about 360,000 compounds; about 25,000 (6.9%) were called active. Not shown: some 9% with an inconclusive outcome. The call rests on the fitted dose curve; in most records, active means well fitted inhibition curve with a large enough effect; inconclusive means small, poorly fitted or top-dose-only effect; inactive means flat fitted curve, though single readings scatter. Many of the other results were omitted from the sample, so actives are more common in it than they were.
Classes used: active, inactive

molecule=COc1ccc(NC(=O)CSc2nnc(-c3nnn(-c4ccc(F)cc4)c3C)o2)cc1 categorylabel=inactive
molecule=CC(C)CNc1ncnc2c1nnn2C categorylabel=inactive
molecule=O=C(/C=C/c1ccc(Cl)cc1Cl)NCc1ccco1 categorylabel=active
molecule=CSc1ncc(C(=O)NCc2ccccc2Cl)c(C(F)(F)F)n1 categorylabel=inactive
molecule=COC(=O)/C=C/C(=O)NCc1ccco1 categorylabel=inactive
molecule=CSc1ncccc1C(=O)Nc1ccc(C)cn1 categorylabel=inactive
molecule=COc1ccc(S(=O)(=O)N2CCN(c3ccc(F)cc3)CC2)cc1-c1noc(C)n1 categorylabel=inactive
molecule="CN(C)C(CNC(=O)c1cccc(C#N)c1)c1ccco1 (configuration not stated)" categorylabel=inactive
molecule=O=C1COc2ccc(C(=O)CSc3ccc(Br)cc3)cc2N1 categorylabel=inactive
molecule=COC(=O)c1ccccc1NC(=O)Cn1c(=O)cc(C)c2c(C)nn(-c3cccc(Cl)c3C)c21 categorylabel=inactive
molecule=O=C(NCc1ccco1)C1(c2ccc(Cl)cc2)CCCC1 categorylabel=inactive
molecule=CSc1ncccc1C(=O)Nc1nc2ccc(F)cc2s1 categorylabel=active

====

systemName: Luciferin 4-monooxygenase (Photinus pyralis)
assayExplanation: qHTS profiling assay for firefly luciferase inhibitor/activator using purifed enzyme and Km concentrations of substrates (counterscreen for miR-21 project); also: nearly all actives have a fitted effect of over 55% in size
experimentalParameters: purified FLuc, luminescence inhibition; series mostly up to 57.5 µM
About 25,000 (6.9%) of roughly 360,000 compounds were called active. Roughly 9% stayed inconclusive and do not appear here. The call rests on the fitted dose curve; in most records, active means well fitted inhibition curve with a large enough effect; inconclusive means small, poorly fitted or top-dose-only effect; inactive means flat fitted curve, though single readings scatter. The list comes from a sample in which actives are over-represented; it also holds close analogues and randomly drawn compounds.
Outcomes: Y (active), N (inactive)

compound=Cc1ccc(OCCSc2nc3ccc(NC(=O)COc4ccc(C)cc4)cc3s2)cc1 systemname="Luciferin 4-monooxygenase (Photinus pyralis)" categorylabel=N
compound=COc1ccc(NC(=O)CN2C(=O)CSC2=O)cc1 systemname="Luciferin 4-monooxygenase (Photinus pyralis)" categorylabel=N
compound=CCOC(=O)c1c(-c2ccc(OC)cc2)oc2ccc(OCc3ccc(C(=O)OC)cc3)cc12 systemname="Luciferin 4-monooxygenase (Photinus pyralis)" categorylabel=N
compound=CCc1ccccc1OCC(=O)Nc1ccc2c(c1)OCCO2 systemname="Luciferin 4-monooxygenase (Photinus pyralis)" categorylabel=Y
compound=Cc1ccc(CNC(=O)CSc2c3c(nc4cc(Cl)ccc24)CCCC3)cc1 systemname="Luciferin 4-monooxygenase (Photinus pyralis)" categorylabel=N
compound=Cn1ccnc1SCC(=O)Nc1ccc2c(c1)OCCO2 systemname="Luciferin 4-monooxygenase (Photinus pyralis)" categorylabel=Y
compound=COc1cccc2c1cc1c(=O)n(CC(=O)N3CCN(c4cccc(Cl)c4)CC3)nc(C)n12 systemname="Luciferin 4-monooxygenase (Photinus pyralis)" categorylabel=N
compound=Cc1ccc(S(=O)(=O)N2CCC(C(=O)Nc3cc(C)ccc3C)CC2)cc1 systemname="Luciferin 4-monooxygenase (Photinus pyralis)" categorylabel=N
compound=Fc1ccc2[nH]c3c(N4CCN(Cc5ccc6c(c5)OCO6)CC4)ncnc3c2c1 systemname="Luciferin 4-monooxygenase (Photinus pyralis)" categorylabel=N
compound=Oc1ccc(N=Cc2sc3ccccc3c2Cl)cc1 systemname="Luciferin 4-monooxygenase (Photinus pyralis)" categorylabel=Y
compound=O=C(CSc1nc2ncccc2[nH]1)Nc1ccc2c(c1)OCCO2 systemname="Luciferin 4-monooxygenase (Photinus pyralis)" categorylabel=Y
compound=O=C(CN1CCCSc2ccccc21)N1CCN(S(=O)(=O)c2ccccc2)CC1 systemname="Luciferin 4-monooxygenase (Photinus pyralis)" categorylabel=N
compound=C/C=C/c1ccc(OCCOc2ccc(C=O)cc2OC)c(OC)c1 systemname="Luciferin 4-monooxygenase (Photinus pyralis)" categorylabel=N
compound=COc1cc(C(=O)NC(=S)NCc2ccco2)cc(OC)c1OC systemname="Luciferin 4-monooxygenase (Photinus pyralis)" categorylabel=N
compound=CCN(C(=O)c1sc2cc(OC)ccc2c1Cl)c1ccccc1 systemname="Luciferin 4-monooxygenase (Photinus pyralis)" categorylabel=N
compound="O=C(CC1C(=O)N(c2ccccc2)C(=O)N1CCc1cccs1)Nc1ccc(F)cc1 (stereo not given)" systemname="Luciferin 4-monooxygenase (Photinus pyralis)" categorylabel=N
compound=CCc1ccc(NC(=O)CN2C(=O)CSC2=O)cc1 systemname="Luciferin 4-monooxygenase (Photinus pyralis)" categorylabel=Y
compound="Cc1ccc(NC(=O)Cn2nnc3sc4c(c3c2=O)CCC(C)C4)cc1 (stereo not given)" systemname="Luciferin 4-monooxygenase (Photinus pyralis)" categorylabel=N
compound="CCCn1nnc2sc3c(c2c1=O)CCC(C)C3 (stereo not given)" systemname="Luciferin 4-monooxygenase (Photinus pyralis)" categorylabel=Y
compound=NS(=O)(=O)c1cc(C(=O)NCCOc2ccccc2)c(Cl)cc1Cl systemname="Luciferin 4-monooxygenase (Photinus pyralis)" categorylabel=N
compound=COc1ccc2oc(C(=O)NCc3ccco3)c(C)c2c1 systemname="Luciferin 4-monooxygenase (Photinus pyralis)" categorylabel=Y
compound=CC(C)OCCCNC(=O)c1cc(Sc2ccc(F)cc2)nc2ccccc12 systemname="Luciferin 4-monooxygenase (Photinus pyralis)" categorylabel=N
compound=CS(=O)(=O)N(CC(=O)N1CCOCC1)c1ccc2c3c(cccc13)CC2 systemname="Luciferin 4-monooxygenase (Photinus pyralis)" categorylabel=N
compound="Cc1ccc(-c2nnc(Nc3cccc(Br)c3)c3ccccc23)cc1S(=O)(=O)NCC1CCCO1 (stereo not given)" systemname="Luciferin 4-monooxygenase (Photinus pyralis)" categorylabel=N
compound=COc1ccc2oc(=O)cc(-c3cc4ccccc4o3)c2c1 systemname="Luciferin 4-monooxygenase (Photinus pyralis)" categorylabel=N
compound="CC(C)CNC(=O)CC(c1ccccc1)c1c(O)ccc2ccccc12 (stereo not given)" systemname="Luciferin 4-monooxygenase (Photinus pyralis)" categorylabel=N
compound=Cc1ccc(SCC(=O)Nc2ccc3c(c2)OCCO3)cc1 systemname="Luciferin 4-monooxygenase (Photinus pyralis)" categorylabel=Y
compound=COc1cc(/C=C2/C(=O)NN(c3cccc(Cl)c3)C2=O)cc(Br)c1O systemname="Luciferin 4-monooxygenase (Photinus pyralis)" categorylabel=Y
compound="Cc1ccc(C)c(N2CCN(C(c3ccccc3)c3nnc(-c4ccccc4)o3)CC2)c1 (stereo not given)" systemname="Luciferin 4-monooxygenase (Photinus pyralis)" categorylabel=N
compound=CC(C)(C)NC(=O)CSC(=Nc1ccccc1F)NC#N systemname="Luciferin 4-monooxygenase (Photinus pyralis)" categorylabel=N
compound=COc1ccc(CCN(C(=O)COc2ccccc2)c2nc(-c3ccccc3)cs2)cc1OC systemname="Luciferin 4-monooxygenase (Photinus pyralis)" categorylabel=N
compound=COc1cc(/C=C2/C(=O)NN(c3ccc(F)cc3)C2=O)cc([N+](=O)[O-])c1O systemname="Luciferin 4-monooxygenase (Photinus pyralis)" categorylabel=Y
compound=CCCCCCCCC(=O)NCCOc1ccccc1 systemname="Luciferin 4-monooxygenase (Photinus pyralis)" categorylabel=N
compound=CN(c1ccc(O)cc1)c1nc(-c2cccnc2)cs1 systemname="Luciferin 4-monooxygenase (Photinus pyralis)" categorylabel=Y
compound=CCOc1[nH]n(-c2ccc(Cl)cc2)c(=O)c1C=Nc1ccc(O)cc1 systemname="Luciferin 4-monooxygenase (Photinus pyralis)" categorylabel=N
compound=CCOc1ccc(S(=O)(=O)Nc2nc3cc(OC)ccc3s2)cc1 systemname="Luciferin 4-monooxygenase (Photinus pyralis)" categorylabel=N
compound=N#C/C(=C\c1cccc(F)c1)c1nc(-c2cc3c(ccc4ccccc43)oc2=O)cs1 systemname="Luciferin 4-monooxygenase (Photinus pyralis)" categorylabel=N
compound=O=c1oc2ccccc2cc1-c1csc(Nc2ccc(O)cc2)n1 systemname="Luciferin 4-monooxygenase (Photinus pyralis)" categorylabel=Y
compound=Oc1ccc(N=Cc2c(O)ccc3ccccc23)cc1 systemname="Luciferin 4-monooxygenase (Photinus pyralis)" categorylabel=Y
compound=Cc1ccc(S(=O)(=O)NCC(=O)Nc2ccc3c(c2)OCCO3)cc1 systemname="Luciferin 4-monooxygenase (Photinus pyralis)" categorylabel=N
compound=CCOc1cccc(NC(=O)Cn2nc(-c3ccc4c(c3)OCCO4)ccc2=O)c1 systemname="Luciferin 4-monooxygenase (Photinus pyralis)" categorylabel=N
compound=O=C(CSc1nc(=O)n2ccccc2n1)Nc1ccc2c(c1)OCCO2 systemname="Luciferin 4-monooxygenase (Photinus pyralis)" categorylabel=N
compound=O=[N+]([O-])c1ccc(N=Cc2c(O)ccc3ccccc23)cc1 systemname="Luciferin 4-monooxygenase (Photinus pyralis)" categorylabel=N
compound="CCc1ccc(N2C(=O)CN(S(=O)(=O)CC)CC2(C)C(=O)NC2CCCCC2)cc1 (stereo not given)" systemname="Luciferin 4-monooxygenase (Photinus pyralis)" categorylabel=N
compound=CCOc1ccc(C(=O)Nc2nccs2)cc1[N+](=O)[O-] systemname="Luciferin 4-monooxygenase (Photinus pyralis)" categorylabel=N
